Origin of the recorded values: a melting point compilation (Tetko et al.; mined from patent text by program, amines drawn as free bases though some values may be those of a salt)

attribute-measured: melting point (°C)

[I] O=C1Nc2ccc(I)cc2C1=NNC(=O)C1CCN(C(=O)c2ccccc2)CC1
[II] COCC(O)c1cccc(S(N)(=O)=O)c1 (stereo not given)
stdin: Two entries are listed, I and II . Which one carries the higher melting point? # respond with the chosen item's label
stdout: I
(I: 160 °C, II: 109 °C)

* * *

Listed compounds paired with reported melting point

Some compounds with known melting point results, for comparison:
>>> data_value("Cc1ccc(CC(CS)C(=O)Nc2cccc(C(=O)O)c2)cc1 (stereo unspecified)")
"188 to 190 °C"
>>> data_value("COCC1CN(C(=O)c2cc(OC)c(OC)c(OC)c2)CCN1C(=O)OC(C)(C)C (stereo unspecified)")
"127 °C"
>>> data_value("CSc1nc(O)cc(OC(F)F)n1")
"236 to 237 °C"

stdin: Recorded melting point of `CCOc1cccc(CSc2nc3cnccc3[nH]2)c1` , please.
stdout: 158 to 161 °C

stdin: Which measured melting point value corresponds to `CC(C)(C)COc1ccc(C2=CC=CN3CCS(=O)(=O)N=C23)cc1` ?
stdout: 258 to 259 °C

stdin: Quick check: melting point of `Cc1nn2c(c1C(N)=O)NCC=C2c1cc(Cl)ccc1Cl` ?
stdout: 93 to 96 °C

* * *

attribute-measured: melting point

Please review the following examples before continuing.
>>> data_value("CNc1nc(=O)c2ccccc2n1Cc1ccc(F)cc1")
"251 to 255 °C"
>>> data_value("CC[C@H](C)[C@H](NC(=O)NCCC1CCCCC1)C(=O)N[C@H](CO)Cc1c[nH]c2ccccc12")
"182 to 184 °C"
>>> data_value("CCOC(=O)c1cc(=O)c(C(=O)c2ccccc2)co1")
"84 to 86 °C"
>>> data_value("Cc1nc2c(N)nc3ccc(OCc4ccccc4)cc3c2n1CCCCCS(C)(=O)=O")
"215 to 217 °C"
>>> data_value("Cc1ccc(-c2cc(C=O)nn2-c2ccc(S(N)(=O)=O)cc2)cc1")
"196 to 198 °C"

stdin: Which melting point value belongs to `COC(=O)c1cc(S(C)(=O)=O)c(Br)cc1C` ?
stdout: 150 °C

stdin: Fill blank: measured melting point of the compound `CCCNC(=O)c1ccc(Nc2nc(OCC3CCCCC3)c3nc[nH]c3n2)cc1` is ____.
stdout: 226 to 228 °C

stdin: Reported melting point for `CCc1cc(C(=O)c2ccccc2Cl)c(-n2c(C)nnc2COC(=O)c2ccc(Cl)c(Cl)c2)s1` : what is it?
stdout: 117 to 119 °C

stdin: Fill in: melting point of COc1ccccc1N1CCN(CCC2CN(C)C(=O)O2)CC1 (stereo not given) is ___
stdout: 107 to 108 °C

* * *

Measured melting point, listed per entry for reference.

stdin: I would be grateful if you could share the reported melting point for N#CCCN1CCN(C(c2ccccc2)c2ccccn2)CC1 (stereo not given) .
stdout: 114 to 116 °C

stdin: Could you share which melting point value was measured for `c1ccc(-c2ncc(-c3ccc4cc(OCc5nnn[nH]5)ccc4c3)o2)cc1` ?
stdout: 239 to 241 °C

stdin: Entry under review: `Nc1ccsc1C(=O)c1ccccc1` . Reported melting point?
stdout: 100 to 102 °C

stdin: May I ask what melting point has been recorded for `COc1nnc2cc(Cl)ccc2n1` ?
stdout: 122 °C
